Taken from ChEMBL document CHEMBL1154682.

experiment.description: Oral bioavailability in Sprague-Dawley rat at 3 mg/kg
Type: ADME, organism-based
stated.conditions: in vivo

| smiles.text | uom | bioavailability |
| --- | --- | --- |
| O=C1Nc2ccc(-c3ccn[nH]3)cc2[C@](CNC(=O)c2ccc(F)cc2)(C(F)(F)F)O1 | % | 30 |

----------
experiment.description: Half life in Sprague-Dawley rat at 1 mg/kg, iv
Assay type: ADME, organism-based
Parameters: dose 1 mg/kg, route intravenous
stated.conditions: in vivo
measurement.type: half-life (h)

| smiles.text | measurement.type | uom | value.observed |
| --- | --- | --- | --- |
| O=C1Nc2ccc(-c3ccn[nH]3)cc2[C@](CNC(=O)c2ccc(F)cc2)(C(F)(F)F)O1 | half-life | h | 1.9 |

----------
experiment.description: Plasma concentration in C57BL/6J mouse at 30 mg/kg, po after 8 hrs
Assay type: ADME, organism-based
Set-up: dose 30 mg/kg, route oral
stated.conditions: read-out: Concentration_plasma
measurement.type: concentration at 8 h (nM)

| smiles.text | uom | value.observed |
| --- | --- | --- |
| O=C1Nc2ccc(-c3ccn[nH]3)cc2[C@](CNC(=O)c2ccc(F)cc2)(C(F)(F)F)O1 | nM | 700 |

----------
experiment.description: Plasma concentration in C57BL/6J mouse at 1 mg/kg, po after 2 hrs
Format: ADME, organism-based
Parameters: dose 1 mg/kg, route oral
measurement.type: concentration at 2 h (nM)

| smiles.text | uom | value.observed |
| --- | --- | --- |
| O=C1Nc2ccc(-c3ccn[nH]3)cc2[C@](CNC(=O)c2ccc(F)cc2)(C(F)(F)F)O1 | nM | 540 |

----------
experiment.description: Plasma concentration in C57BL/6J mouse at 10 mg/kg, po after 2 hrs
Type: ADME, organism-based
Set-up: dose 10 mg/kg, route oral

| smiles.text | concentration at 2 h |
| --- | --- |
| O=C1Nc2ccc(-c3ccn[nH]3)cc2[C@](CNC(=O)c2ccc(F)cc2)(C(F)(F)F)O1 | 660 nM |

----------
experimental.target: Very long chain fatty acid elongase 2 (Homo sapiens)
Sequence (Q9NXB9 whole entry): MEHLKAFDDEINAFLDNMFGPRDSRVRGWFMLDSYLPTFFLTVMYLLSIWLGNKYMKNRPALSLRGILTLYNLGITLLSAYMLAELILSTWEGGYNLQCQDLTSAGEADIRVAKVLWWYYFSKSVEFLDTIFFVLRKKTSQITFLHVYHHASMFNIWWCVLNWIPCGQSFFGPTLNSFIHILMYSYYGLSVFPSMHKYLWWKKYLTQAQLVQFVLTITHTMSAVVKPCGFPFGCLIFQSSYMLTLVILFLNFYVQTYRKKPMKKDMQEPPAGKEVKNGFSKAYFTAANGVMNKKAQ
pIC50: −log10 of the molar value.

| smiles.text | pIC50 |
| --- | --- |
| O=C1Nc2ccc(-c3ccn[nH]3)cc2[C@](CNC(=O)c2ccc(F)cc2)(C(F)(F)F)O1 | < 5.00 |

----------
experiment.description: Plasma concentration in C57BL/6J mouse at 30 mg/kg, po twice daily after 3 days
Assay type: ADME, organism-based
Design: dose 30 mg/kg, route oral
measurement.type: concentration at 72 h

| smiles.text | value.observed |
| --- | --- |
| O=C1Nc2ccc(-c3ccn[nH]3)cc2[C@](CNC(=O)c2ccc(F)cc2)(C(F)(F)F)O1 | > 540 nM |

----------
experiment.description: Plasma concentration in C57BL/6J mouse at 30 mg/kg, po after 2 hrs
Type: ADME, organism-based
Parameters: dose 30 mg/kg, route oral
stated.conditions: read-out: Concentration_plasma
measurement.type: concentration at 2 h (µM)

| smiles.text | uom | value.observed |
| --- | --- | --- |
| O=C1Nc2ccc(-c3ccn[nH]3)cc2[C@](CNC(=O)c2ccc(F)cc2)(C(F)(F)F)O1 | µM | 11.7 |
